- Test system: HEK-293T
- assay-name: Multiplex assay against HEK293T
- Format: toxicity, cell-based
- condition-notes: human, 12 h, 1 µM, compound concentration 1 uM, replicate 2
quantity-kind: Population Healthy Nuclei (%)

chemical-structure: c1cc(OCCCN2CCCCC2)ccc1CN1CCCCC1
Population Healthy Nuclei (%): 75%

Look up Population Healthy Nuclei (%): Oc1c(CN2CCN(c3ccccn3)CC2)cc(Cl)c2cccnc12
80%

----------
- Test system: HEK-293T
- assay-name: Multiplex assay against HEK293T
- Format: toxicity, cell-based
- condition-notes: human, 24 h, 10 µM, compound concentration 10 uM, replicate 1
Threshold-based label: Population Apoptotic (%) under 40% gives class 1, Population Apoptotic (%) not under 40% gives class 0.

Below, 5 compounds whose answers are already recorded.
compound: CSCC[C@H](NC=O)C(=O)N[C@@H](CC(C)C)C(=O)N[C@@H](Cc1ccccc1)C(=O)O
assigned-category: class 1
--
compound: CC[C@H]1OC(=O)[C@H](C)[C@@H](O[C@H]2C[C@@](C)(OC)[C@@H](O)[C@H](C)O2)[C@H](C)[C@@H](O[C@@H]2O[C@H](C)C[C@H](N(C)C)[C@H]2O)[C@@]2(C)CC(C)=C(O2)[C@H](C)[C@@H](O)[C@]1(C)O
assigned-category: class 0
--
compound: CN(C)c1ccnc2sc3c(=O)n(N4CCCCCC4)cnc3c12
assigned-category: class 0
--
compound: Cc1ccc(F)cc1C(=O)Nc1ccc(C(=O)N2Cc3cccn3Cc3ccccc32)c(Cl)c1
assigned-category: class 1
--
compound: COc1cc(C(=O)N(CCCc2ccccc2)Cc2ccc(CC(=O)O)cc2)cc(OC)c1C
assigned-category: class 1

A record lists CN(C)CCCc1cc(C(=O)Nc2ccc(-c3ccncc3)cc2)ccc1O.Cl.Cl . Is its Population Apoptotic (%) below 40%?
class 1

A record lists COc1cc(NC(=O)CCN2CCC(OC(=O)Nc3ccccc3-c3ccccc3)CC2)c(Cl)cc1CNC[C@H](O)c1ccc(O)c2[nH]c(=O)ccc12 . Is its Population Apoptotic (%) below 40%?
class 1

A record lists CCOc1c2c(c(OCC)c3ncccc13)CN(c1ccc(CS(=O)(=O)NC(=O)Cc3ccccc3OC)cc1C)C2=O . Is its Population Apoptotic (%) below 40%?
class 1

A record lists COc1c(C)cc(NC(=O)c2nn(Cc3ccc(F)cc3)c3c2CN(C(=O)c2ccc[nH]2)C[C@]3(C)C(N)=O)cc1C . Is its Population Apoptotic (%) below 40%?
class 0

A record lists CCCC(CCC)C(=O)O . Is its Population Apoptotic (%) below 40%?
class 1

A record lists Cc1ccc(/C(=C\CN2CCCC2)c2ccccn2)cc1 . Is its Population Apoptotic (%) below 40%?
class 1

A record lists Cl.Clc1ccc2nsnc2c1NC1=NCCN1 [TIZANIDINE HYDROCHLORIDE] . Is its Population Apoptotic (%) below 40%?
class 1

A record lists N#Cc1c(N)nc(SCc2csc(-c3ccc(Cl)cc3)n2)c(C#N)c1-c1ccc(OCCO)cc1 . Is its Population Apoptotic (%) below 40%?
class 0

----------
- Test system: U2OS
- assay-name: Multiplex assay against U2OS
- Format: toxicity, cell-based
- condition-notes: human, 24 h, 1 µM, compound concentration 1 uM, replicate 1
quantity-kind: Population Mitochondria Different-Phenotype (%)

Look over these answered cases.
compound: CNC[C@H](O)c1ccc(O)c(O)c1 [EPINEPHRINE]
assay-result: 1%

compound: CSc1ccccc1N1CCN(CCCCCC(=O)NC2CCCc3ccccc32)CC1.Cl (stereo not given)
assay-result: 63%

Look up Population Mitochondria Different-Phenotype (%): O=C(NCC(=O)N1CC[C@H](N[C@H]2CC[C@@](O)(c3ccc(-c4ncccn4)cn3)CC2)C1)c1cccc(C(F)(F)F)c1
2%

Look up Population Mitochondria Different-Phenotype (%): O=C(NCCO)c1cccc(-c2cc(Nc3ccc(OC(F)(F)F)cc3)ncn2)c1
3%

Look up Population Mitochondria Different-Phenotype (%): CCCN1CCC[C@@H]2Cc3n[nH]cc3C[C@H]21.Cl [QUINPIROLE HYDROCHLORIDE]
3%
